Known OD450 of a selection of binders
Biological target: T1, Cynomolgus/Rhesus macaque FOLR1 Protein, His Tag (ACRO, F01-C52H8) (cynomolgus, UniProt A0A2K5U044 25-233)
T1 construct: also called cynomolgus FOLR1 protein; not shown: His tag
T1 sequence (A0A2K5U044 entry or part of it): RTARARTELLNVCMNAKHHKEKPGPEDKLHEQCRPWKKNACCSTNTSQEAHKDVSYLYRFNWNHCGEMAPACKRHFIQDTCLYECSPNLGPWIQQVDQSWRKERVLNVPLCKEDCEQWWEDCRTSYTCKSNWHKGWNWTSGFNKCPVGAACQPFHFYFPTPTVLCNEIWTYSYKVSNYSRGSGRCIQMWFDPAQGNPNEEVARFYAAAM
Experiment: ELISA, supernatant diluted 5x
Give the value as a plain number.

Example results:
{"binder": "F138 (antibody, V domains shown, also called clone F138; anti-FOLR1 antibody F138) VH: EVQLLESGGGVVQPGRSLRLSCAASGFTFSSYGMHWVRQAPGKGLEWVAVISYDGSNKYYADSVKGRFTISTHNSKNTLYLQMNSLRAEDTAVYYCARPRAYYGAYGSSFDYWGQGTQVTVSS VL: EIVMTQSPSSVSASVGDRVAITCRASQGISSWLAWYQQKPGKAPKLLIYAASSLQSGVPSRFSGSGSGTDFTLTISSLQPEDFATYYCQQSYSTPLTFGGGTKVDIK", "endpoint name": "OD450", "endpoint result": 1.14}
{"binder": "F1 (antibody, V domains shown, also called clone F1; anti-FOLR1 antibody F1) VH: EVQLLESGGGVVQPGRSLRLSCAASGFTFSSYGMHWVRQAPGKGLEWVAVISYDGSNKYYADSVKGRFTISRDNSKNTLYLQMNSLRAEDTAVYYCARPRAYYGAYGSSFDYWGQGTQVTVSS VL: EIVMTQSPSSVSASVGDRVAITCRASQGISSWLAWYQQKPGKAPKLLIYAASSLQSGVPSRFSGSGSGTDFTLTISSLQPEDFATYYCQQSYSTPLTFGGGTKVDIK", "endpoint name": "OD450", "endpoint result": 1.26}

Enquiry: Given the binder F26 (antibody, V domains shown, also called clone F26; anti-FOLR1 antibody F26) VH: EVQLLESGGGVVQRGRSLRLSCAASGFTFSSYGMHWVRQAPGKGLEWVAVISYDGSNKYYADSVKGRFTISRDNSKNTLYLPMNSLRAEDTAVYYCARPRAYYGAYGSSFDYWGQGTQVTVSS VL: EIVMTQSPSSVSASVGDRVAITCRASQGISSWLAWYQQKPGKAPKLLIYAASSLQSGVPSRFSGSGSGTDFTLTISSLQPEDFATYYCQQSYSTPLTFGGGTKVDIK , write its reported OD450.
Return: 1.21

Enquiry: Given the binder F8 (antibody, V domains shown, also called clone F8; anti-FOLR1 antibody F8) VH: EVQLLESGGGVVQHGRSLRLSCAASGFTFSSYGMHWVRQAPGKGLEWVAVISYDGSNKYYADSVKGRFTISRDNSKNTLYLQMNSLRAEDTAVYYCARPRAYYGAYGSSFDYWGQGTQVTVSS VL: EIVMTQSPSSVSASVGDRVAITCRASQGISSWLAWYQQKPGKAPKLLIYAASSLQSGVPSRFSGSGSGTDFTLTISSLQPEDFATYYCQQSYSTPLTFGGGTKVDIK , write its reported OD450.
Return: 1.28
